biological target: FKBP52FK1 (Homo sapiens)
Sequence (Q02790 50-138 limits assumed): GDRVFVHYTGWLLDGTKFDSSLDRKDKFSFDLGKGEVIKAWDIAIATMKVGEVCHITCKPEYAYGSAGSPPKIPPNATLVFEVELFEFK
Recorded measurements of Ki, one per entry

compound | unit.label | Ki
C=C[C@H]1CN([C@@H](C)c2cn(CCOCCOCCOCC(=O)Nc3cccc4c3C(=O)N(C3CCC(=O)NC3=O)C4=O)nn2)C(=O)[C@@H]2CCC[C@H]1N2S(=O)(=O)c1cc(Cl)cc(Cl)c1 (stereo partly drawn) | nM | 5
C=C[C@H]1CN([C@@H](C)c2cn(CCOCC(=O)Nc3cccc4c3C(=O)N(C3CCC(=O)NC3=O)C4=O)nn2)C(=O)[C@@H]2CCC[C@H]1N2S(=O)(=O)c1cc(Cl)cc(Cl)c1 (stereo partly drawn) | nM | 0.7
C=C[C@H]1CN(Cc2cn(CCOCCOCCOCC(=O)Nc3cccc4c3C(=O)N(C3CCC(=O)NC3=O)C4=O)nn2)C(=O)[C@@H]2CCC[C@H]1N2S(=O)(=O)c1cc(Cl)cc(Cl)c1 (stereo partly drawn) | nM | 16

###

target: FKBP12.6 (Homo sapiens, UniProt P68106); experiment: FP assay, binding to human FKBPs (Table 1); settings: fluorescence polarization assay
Sequence (P68106 whole entry): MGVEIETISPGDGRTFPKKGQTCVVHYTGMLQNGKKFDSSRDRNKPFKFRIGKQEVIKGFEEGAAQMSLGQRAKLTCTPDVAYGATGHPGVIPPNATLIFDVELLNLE
pKi: −log10 of the molar value.
Give met when the value for pKi is at least 8. Give not met when it is less.

compound | class.assignment
C=C[C@H]1CN([C@H](C)c2ccccn2)C(=O)[C@@H]2CCC[C@H]1N2S(=O)(=O)c1cc(Cl)cc(Cl)c1 | not met
C=C[C@H]1CN([C@H](C)c2ccccn2)C(=O)[C@@H]2CCC[C@H]1N2S(=O)(=O)c1ccc2ncsc2c1 | not met
C=C[C@H]1CN([C@@H](C)c2ccccn2)C(=O)[C@@H]2CCC[C@H]1N2S(=O)(=O)c1ccc2ncsc2c1 | met
O=C1[C@@H]2CCC[C@H]([C@@H](CO)CN1Cc1ccccn1)N2S(=O)(=O)c1cc(Cl)cc(Cl)c1 [23a] | met

###

Recorded measurements of pKi, one per entry
molecular target: UniProt P62942; test: FP assay, binding to human FKBPs (Table 1); conditions: fluorescence polarization assay
Sequence (P62942 whole entry): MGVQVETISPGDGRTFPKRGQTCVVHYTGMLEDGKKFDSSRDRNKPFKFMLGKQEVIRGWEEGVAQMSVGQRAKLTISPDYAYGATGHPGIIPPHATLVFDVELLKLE
pKi: −log10 of the molar value.
parameter.measured: pKi

compound | reported.relation | numeric.readout
C=C[C@H]1CN([C@@H](C)C(=O)O)C(=O)[C@@H]2CCC[C@H]1N2S(=O)(=O)c1cc(Cl)cc(Cl)c1 [21b] | = | 7.89
C=C[C@H]1CN(Cc2cn(-c3ccc(OC)cc3)nn2)C(=O)[C@@H]2CCC[C@H]1N2S(=O)(=O)c1cc(Cl)cc(Cl)c1 [19a] | = | 7.82
CC[C@H]1CN(Cc2ccccn2)C(=O)[C@@H]2CCC[C@H]1N2S(=O)(=O)c1ccc2ncsc2c1 [26a] | = | 8.19
C[C@@H](c1ccccn1)N1C[C@H](CO)[C@H]2CCC[C@@H](C1=O)N2S(=O)(=O)c1ccc2ncsc2c1 [25b] | = | 8.82
C=C[C@H]1CN(Cc2ccccn2)C(=O)[C@@H]2CCC[C@H]1N2S(=O)(=O)c1cc(Cl)cc(Cl)c1 [6a] | = | 8.89
C=C[C@H]1CN([C@H](C)c2cn(-c3ccc(OC)cc3)nn2)C(=O)[C@@H]2CCC[C@H]1N2S(=O)(=O)c1cc(Cl)cc(Cl)c1 [19c] | = | 6.63
C=C[C@H]1CN([C@H](C)COC)C(=O)[C@@H]2CCC[C@H]1N2S(=O)(=O)c1cc(Cl)cc(Cl)c1 [22c] | < | 5.30
C=C[C@H]1CN(Cc2ccccn2)C(=O)[C@@H]2CCC[C@H]1N2S(=O)(=O)c1ccc2ncsc2c1 [7a] | = | 8.12
C=C[C@H]1CN([C@H](C)CO)C(=O)[C@@H]2CCC[C@H]1N2S(=O)(=O)c1ccc2ncsc2c1 [17b] | < | 5.30
O=C1[C@@H]2CCC[C@H]([C@@H](CO)CN1Cc1ccccn1)N2S(=O)(=O)c1cc(Cl)cc(Cl)c1 [23a] | = | 9.46
C=C[C@H]1CN([C@@H](C)COC)C(=O)[C@@H]2CCC[C@H]1N2S(=O)(=O)c1cc(Cl)cc(Cl)c1 [22b] | = | 7.85
C=C[C@H]1CN([C@@H](C)c2ccccn2)C(=O)[C@@H]2CCC[C@H]1N2S(=O)(=O)c1cc(Cl)cc(Cl)c1 [6d] | = | 9.82
C=C[C@H]1CN([C@@H](C)CO)C(=O)[C@@H]2CCC[C@H]1N2S(=O)(=O)c1ccc2ncsc2c1 [17a] | = | 7.68
C=C[C@H]1CN([C@H](C)COCc2ccccc2)C(=O)[C@@H]2CCC[C@H]1N2S(=O)(=O)c1ccc2ncsc2c1 [16b] | < | 5.30
C=C[C@H]1CN(CC(=O)O)C(=O)[C@@H]2CCC[C@H]1N2S(=O)(=O)c1cc(Cl)cc(Cl)c1 [21a] | = | 7.48
O=C1[C@@H]2CCC[C@H]([C@@H](CO)CN1Cc1ccccn1)N2S(=O)(=O)c1ccc2ncsc2c1 [25a] | = | 8.26
C=C[C@H]1CN([C@H](C)c2ccccn2)C(=O)[C@@H]2CCC[C@H]1N2S(=O)(=O)c1ccc2ncsc2c1 [7e] | = | 6.62
C[C@@H](c1ccccn1)N1C[C@H](CO)[C@H]2CCC[C@@H](C1=O)N2S(=O)(=O)c1cc(Cl)cc(Cl)c1 [23b] | = | 10.22

Value source: patent US20230126391A1
